system: Bacillus subtilis; test: cleaved RNA product abundance (RNA/gDNA barcode ratio) relative to median wild-type variant (ratio to wild type); higher = more accumulation of the downstream cleavage product; conditions: experiment (reporter, strain, medium): exp 2b: truncated aprE reporter, strain BJT200; cleavage site: cggR-gapA (positions -7 to +36 mutated)
attribute-measured: cleaved RNA product abundance

>>> df
                              entry_sequence  numeric_result
 0  ACAGACGAAGGAGCCGCAAAGAAGTTATTAAGGGATGATTAATCCTTCAATATAAATATCTCTCACTTATTTAAA           0.306
 1  ACAGACGAAGGAGCCGCATAGAAGTTATTAAGGGATGAATAATCCCTTAATATAAATATCTCTCACTTATTTAAA            1.12
 2  ACAGACGAAGGAGCCGCAAAGAAGTTATTAAGGGATGAATAATCCCTCATTATAAATCTCTCTCACTTATTTAAA           0.236
 3  ACAGACGAAGGAGCCGCAAAGAAGTTACTAATGGATGAATAATCCCTCAATATAAATATCTCTCACTTATTTAAA           0.112
 4  ACAGACGAAGGAGCCGCAAAGAAGTTATTAAGGCATGAATAATCCCTCAATATACATATCTCTCACTTATTTAAA           0.112
 5  ACAGACGAAGGAGCCGCAAAGAAGTTATTAAGGGATGAATAAACCCTCAATATAATTATCTCTCACTTATTTAAA           0.293
 6  ACAGACGAAGGAGCCGCAAAGAAGTTATTAAGGGATGATTAATTCCTCAATATAAATATCTCTCACTTATTTAAA           0.271
 7  ACAGACGAAGGAGCCGCAAAGAAGTTATTAAGGGATGAATAATCCCTCAATATAAATAGCTCTCACTTATTTAAA           0.637
 8  ACAGACGAAGGAGCCGCAAAGTAGTTATTAAGGGATGAATAATCCCTGAATATAAATATCTCTCACTTATTTAAA           0.409
 9  ACAGACGAAGGAGCCGCAAAGAAGTTATTCAGGGATGATTAATCCCTCAATATAAATATCTCTCACTTATTTAAA           0.532
10  ACAGACGAAGGAGCCGCAAAGAAGCTATTAAGGAATGAATAATCCCTCAATATAAATATCTCTCACTTATTTAAA           0.108
11  ACAGACGAAGGAGCCGCAAAGAAGTTATTAAGGGATAAGTAATCCCTCAATATAAATATCTCTCACTTATTTAAA           0.555
12  ACAGACGAAGGAGCCGCAAAGAAGTTATTAAGTGATGAATAATCACTCAATATAAATATCTCTCACTTATTTAAA            0.81
13  ACAGACGAAGGAGCCGCAAAGAAGTTATTAAGAGATGAATAATCCCTAAATATAAATATCTCTCACTTATTTAAA           0.141
14  ACAGACGAAGGAGCCGCAAAGAAGTTATTAAGTGATGAATAATGCCTCAATATAAATATCTCTCACTTATTTAAA             0.1

* * *

Listed sequences paired with reported cleaved RNA product abundance
test system: Bacillus subtilis; test: cleaved RNA product abundance (RNA/gDNA barcode ratio) relative to median wild-type variant (ratio to wild type); higher = more accumulation of the downstream cleavage product; details: experiment (reporter, strain, medium): exp 4a: truncated aprE reporter, strain BJT201 with 2% xylose (RNase J1 expressed); cleavage site: cggR-gapA (positions -7 to +36 mutated)
attribute-measured: cleaved RNA product abundance

In [3]: df
Out[3]:
                              entry_sequence  numeric_result
 0  ACAGACGAAGGAGCCGCAAAGAAGTTATTAAGGGATGAATAATCACTCAGTATAAATATCTCTCACTTATTTAAA          0.0778
 1  ACAGACGAAGGAGCCGCAAAGAAGTAATTAAGGGATGAATAATACCTCAATATAAATATCTCTCACTTATTTAAA           0.141
 2  ACAGACGAAGGAGCCGCAAATAAGTTATTACGGGATGAATAATCCCTCAATATAAATATCTCTCACTTATTTAAA            0.36
 3  ACAGACGAAGGAGCCGCTAAGAAGTTATTAAGGGATGAATAACCCCTCAATATAAATATCTCTCACTTATTTAAA           0.437
 4  ACAGACGAAGGAGCCGCAAAGAAATTATTAAGCGATGAATAATCCCTCAATATAAATATCTCTCACTTATTTAAA           0.121
 5  ACAGACGAAGGAGCCGCAAAGAAGTTATTAAGGGACGAATAATCCCTCATTATAAATATCTCTCACTTATTTAAA           0.326
 6  ACAGACGAAGGAGCCGCAAAGAAGTTATTAAAGGATGAATGATCCCTCAATATAAATATCTCTCACTTATTTAAA           0.155
 7  ACAGACGAAGGAGCCGCAAACAAGTTATTAAGGGATGACTAATCCCTCAATATAAATATCTCTCACTTATTTAAA           0.522
 8  ACAGACGAAGGAGCCGCAAATGAGTTATTAAGGGATGAATAATCCCTCAATATAAATATCTCTCACTTATTTAAA            1.15
 9  ACAGACGAAGGAGCCGCAAAAAAGTTATTAAGGGATAAATAATCCCTCAATATAAATATCTCTCACTTATTTAAA            0.86
10  ACAGACGAAGGAGCCGCAAAGAAGTTATTAAGGGATTAAAAATCCCTCAATATAAATATCTCTCACTTATTTAAA           0.629
11  ACAGACGAAGGAGCCGCAAAGAAGTTATTAAGCGATGAATAATCCCTCAATATAAAAATCTCTCACTTATTTAAA           0.111
12  ACAGACGAAGGAGCCGCAAAGAAGTTATTAACGGATGAATAATCCCTGAATATAAATATCTCTCACTTATTTAAA           0.107
13  ACAGACGAAGGAGCCGCACAGAAGTTATTAATGGATGAATAATCCCTCAATATAAATATCTCTCACTTATTTAAA           0.165
14  ACAGACGAAGGAGCCGCAACGAAGTTATTAAGGGATGAATAATCCCTCAATATAAATCTCTCTCACTTATTTAAA           0.538

* * *

system: Bacillus subtilis; experiment: cleaved RNA product abundance (RNA/gDNA barcode ratio) relative to median wild-type variant (ratio to wild type); higher = more accumulation of the downstream cleavage product; settings: experiment (reporter, strain, medium): exp 2b: truncated aprE reporter, strain BJT200; cleavage site: cggR-gapA (positions -7 to +36 mutated)
attribute-measured: cleaved RNA product abundance

>>> print(df.to_string())
                              entry_sequence  target_under_test  numeric_result
 0  ACAGACGAAGGAGCCGCAAATAAGTTATTAAGGGATGAATTATCCCTCAATATAAATATCTCTCACTTATTTAAA  Bacillus subtilis           0.711
 1  ACAGACGAAGGAGCCGCAAAGAAGATATTAAGGTATGAATAATCTCTCAATATAAATATCTCTCACTTATTTAAA  Bacillus subtilis           0.105
 2  ACAGACGAAGGAGCCGCAAAGAAGTTATTAAGGGATGAATAATCCCTCAGGATAAATATCTCTCACTTATTTAAA  Bacillus subtilis           0.131
 3  ACAGACGAAGGAGCCGCAAAGCAGTTATTAAGGGATGAATAATCGCTCAATATAAATATCTCTCACTTATTTAAA  Bacillus subtilis           0.083
 4  ACAGACGAAGGAGCCGCAAACAAGTTATTAAGGGATGAATAATCCCTCAATATAAATAACTCTCACTTATTTAAA  Bacillus subtilis           0.576
 5  ACAGACGAAGGAGCCGCAAAGAAGTTATTAAGGGATGAATAATCCATCAAAATAAATATCTCTCACTTATTTAAA  Bacillus subtilis           0.132
 6  ACAGACGAAGGAGCCGCAAAGAAGTTATTAAGGGATGAATAATACCTCAATATAAATATCTCTCACTTATTTAAA  Bacillus subtilis           0.117
 7  ACAGACGAAGGAGCCGCAAAGAAGTTATAAAGGGATGAATAATCCCTCAATATAAATATCTCTCACTTATTTAAA  Bacillus subtilis           0.363
 8  ACAGACGAAGGAGCCGCAATGAAGTTATTAAGGGATGAATAATTCCTCAATATAAATATCTCTCACTTATTTAAA  Bacillus subtilis           0.505
 9  ACAGACGAAGGAGCCGCAAAGAAGTTATTAAGGGATGAATAATCCTTCAACATAAATATCTCTCACTTATTTAAA  Bacillus subtilis           0.159
10  ACAGACGAAGGAGCCGCAAAGAATTTATAAAGGGATGAATAATCCCTCAATATAAATATCTCTCACTTATTTAAA  Bacillus subtilis           0.355
11  ACAGACGAAGGAGCCGCAAACAAGTAATTAAGGGATGAATAATCCCTCAATATAAATATCTCTCACTTATTTAAA  Bacillus subtilis           0.177
12  ACAGACGAAGGAGCCGCAAGGAAGTTATTAAGGGATGAATAATCCCTCAATATAAATATCTCTCACTTATTTAAA  Bacillus subtilis           0.954
13  ACAGACGAAGGAGCCGCAAAGAAGTTATTAATGGATGAATAATCCCTCAAGATAAATATCTCTCACTTATTTAAA  Bacillus subtilis          0.0884
14  ACAGACGAAGGAGCCGCAAAGAAGTTATTAAGGGATGAATAATCCCTCAATAAAAATATCTCTCACTTATTTAAA  Bacillus subtilis           0.172
